These data points were gathered from patent US12152016B2.

System: AHR-dependent transcription of the CYP1A1 gene
Assay: CYP1A1 induction in mouse macrophages
Assay type: cell-based
Settings: 5 μM
Description: Mouse macrophages were also used to test AHR-dependent transcription of the CYP1A1 gene in vivo. Finally, the activity of exemplary compounds of Formula (I) described herein was tested in the human […] cell line U937. The U937 cell line is derived from a patient with diffuse histiocytic lymphoma. Tables 2-4 summarize structure-activity relationship data collected for exemplary, non-limiting compounds of Formula (I) described herein.
quantityKind: CYP1A1 induction (% of ITE ± SEM)

Your task in this section: give CYP1A1 induction (% of ITE ± SEM) for each listed record.
1. O=C(c1cccc(C(F)(F)F)n1)c1c[nH]c2ccccc12 [Compound 109]
2. COC(=O)c1cccc(C(=O)c2c(C)[nH]c3ccccc23)n1 [Compound 144]

1: 90 ± 17 % of ITE; 2: 6 ± 2 % of ITE

Please give CYP1A1 induction (% of ITE ± SEM) for each item listed below.
1. CN(C)C(=O)c1cccc(C(=O)c2c[nH]c3ccccc23)n1 [Compound 4]
2. COC(=O)c1cccc(C(=O)c2c[nH]c3ccc(Br)cc23)n1 [Compound 20]
3. COC(=O)c1cccc(C(=O)c2c[nH]c3c2ccc2ccccc23)n1 [Compound 22]

1. 2.5 ± 1.4 % of ITE
2. 144 ± 20 % of ITE
3. 105 ± 3 % of ITE
